# study-system: TDP-43 (Homo sapiens, UniProt Q13148 1-414)
# Sequence (Q13148 whole entry): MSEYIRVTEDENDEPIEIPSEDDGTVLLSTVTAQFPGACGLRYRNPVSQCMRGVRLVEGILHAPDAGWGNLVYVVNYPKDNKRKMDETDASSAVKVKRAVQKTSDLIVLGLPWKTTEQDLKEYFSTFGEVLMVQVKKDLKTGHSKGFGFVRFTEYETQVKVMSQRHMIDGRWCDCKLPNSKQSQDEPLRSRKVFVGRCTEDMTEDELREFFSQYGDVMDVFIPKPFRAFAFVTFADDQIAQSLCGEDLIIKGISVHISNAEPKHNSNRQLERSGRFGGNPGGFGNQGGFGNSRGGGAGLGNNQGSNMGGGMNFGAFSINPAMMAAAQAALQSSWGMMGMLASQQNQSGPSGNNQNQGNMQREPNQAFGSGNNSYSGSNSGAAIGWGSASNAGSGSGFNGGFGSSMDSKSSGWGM
# measurement-description: RNA Bind-n-Seq with designed 260-mer pool; 25 mM Tris-HCl, 150 mM KCl, 3 mM MgCl2, BSA (printed 500 mg/mL), 20 units/mL SUPERase IN; pH not stated; 500 nM RNA pool, 1 h, 4 C; TDP-43 5, 50, 500 nM; high values mean tight binding
# setup-conditions: protein: recombinant; tags: SBP (GST cleaved off with PreScission; pGEX-GST-SBP)
In all, about 9,900 sequences were measured (“r (bound/input frequency ratio)”: median about 0.7, highest 2% from about 6.5 on). For the sample, the highest values were picked, then their nearest neighbours and some sequences at random.
I'd be grateful if you could share measured binding signal for these entries.

binder	binding signal
ENSMUSG00000090935.235|Synj2bp (ssRNA) RNA: GGGAGUUCUACAGUCCGACGAUCGCUUCGAUAUCCGCAUGCUAGGGGACUAGGGGAUCAUAUUCCCUCAUAUAUAAUCAAGACUCAUAUUGAAAAAUGAGUUCUGGAUUGUAAAGAGAACUUACUUUUUCCACUUGCCUGUAAGUCUUUGUCCACAAGUUAAAAACAUACACAGUGCUAAGGAAUGAUCAUAACUGAAACAUUUCAAGAACUAUUAGCAGAGCAUGUAUAUUGAGGAUGGGGAAGUUAGCUUUAAAAGAGAAUGCUCAGUCAGUGACAUUAGGAAAAUAAUGACUGAAGCAAUCUCUUGCGGUCGCACUAGUGUGGAAUUCUCGGGUGUCAAGG	0.157 R (bound/input frequency ratio)

// query Indicate the recorded binding signal value for this binder: ENSMUSG00000061578.1419|Ksr2|3:7;229:233 (ssRNA) RNA: GGGAGUUCUACAGUCCGACGAUCGCUUCGAUAUCCGCAUGCUAAUCAUACAUCUUGAUUCUCCAUUUUCCUUCUGGACCACAUGUCUCUUCCUUUUCCUUUUUAGAUCUGUCUUGCUCUCUGUCUCUCUCACUCAUUGCCAACAUGUUGCUGGGAAAGAAUAUUUGAUUUAGAUGCCAAUCAGGAAGGCAAGUAGGAUGGAUGGAUGAGUGAGUGGAUAGGUAGGUAUAUAAAUGGAUGGAUGGGUGAUGGAUGGGUAAAUGAAUGGAUAGCAUACUGAAUGAAUGGAUGAUGGAUGAAUGGACUCUUGCGGUCGCACUAGUGUGGAAUUCUCGGGUGUCAAGG
// result 2.26 R (bound/input frequency ratio)
